solubility thermodynamic at 1 h: recorded values
- assay: Thermodynamic solubility, shake-flask, 10 mM PBS (0.15 M KCl) pH 7, 25 °C, 1 h, HPLC-UV
- run.parameters: pH 7, aqueous buffer, thermodynamic from solid
Unit µg/mL implied. Number only.

// solved cases for solubility thermodynamic at 1 h follow
COc1cc2ncnc(Nc3ccc(F)c(Cl)c3)c2cc1OCCCCCOCCOCCC(=O)N[C@H](C(=O)N1C[C@H](O)C[C@H]1C(=O)NCc1ccc(-c2scnc2C)cc1)C(C)(C)C | 1.14
CC(=O)N1c2ccc(-c3ccc(C(=O)NCCOCCOCCOCC(=O)N[C@H](C(=O)N4C[C@H](O)C[C@H]4C(=O)NCc4ccc(-c5scnc5C)cc4)C(C)(C)C)cc3)cc2[C@H](Nc2ccc(Cl)cc2)C[C@@H]1C | 0.528
COc1cc(C(=O)NCCOCCOCCOCC(=O)N[C@H](C(=O)N2C[C@H](O)C[C@H]2C(=O)NCc2ccc(-c3scnc3C)cc2)C(C)(C)C)ccc1Nc1ncc(C(F)(F)F)c(Oc2cccc3c2C(=O)CC3)n1 | 2.78

As a next step, examine the molecule that follows.
Look at this molecule and give its reported solubility thermodynamic at 1 h. Cc1ncsc1-c1ccc(CNC(=O)[C@@H]2C[C@@H](O)CN2C(=O)[C@@H](NC(=O)CCCCOCCCCCOCCCCCCNc2cccc3c2C(=O)N(C2CCC(=O)NC2=O)C3=O)C(C)(C)C)cc1 (stereo partly shown)
1.19

----------
A collection of molecules and their measured chromatographic logD
- assay: physchem
- run.parameters: pH 7
When you answer, write just the number.

Consider the molecule COc1cc(C(=O)NC2CCN(C)CC2)ccc1Nc1ncc(C(F)(F)F)c(Oc2cccc3c2C(=O)CC3)n1 and give its measured chromatographic logD.
1.79

----------
- assay: Thermodynamic solubility, shake-flask, 10 mM PBS (0.15 M KCl) pH 7, 25 °C, 1 h, HPLC-UV
- run.parameters: 25 °C, pH 7, aqueous buffer, thermodynamic from solid, Solubility average, thermodynamic, shake-flask, pH 7, 25 °C, 1 h
reported.metric: solubility at 1 h (µM)
Only the number, expressed in µM, is required.

Cc1sc2c(c1C)C(c1ccc(Cl)cc1)=N[C@@H](CC(=O)NCCNc1cccc3c1C(=O)N(C1CCC(=O)NC1=O)C3=O)c1nnc(C)n1-2 (stereo partly drawn) [dBET57] | 30.2

// below: solubility at 1 h requested for another molecule
Which solubility at 1 h value belongs to COc1cc(-c2cn(C)c(=O)c3cc(C(=N)NC4CCS(=O)(=O)CC4)sc23)ccc1OCC(=O)NCCCCNC(=O)COc1cccc2c1C(=O)N(C1CCC(=O)NC1=O)C2=O (stereo not drawn) [BRD9 degrader-1] ?
661

----------
- assay: Thermodynamic solubility, shake-flask, 10 mM PBS (0.15 M KCl) pH 7, 25 °C, 1 h, HPLC-UV
- run.parameters: 25 °C, pH 7, aqueous buffer, thermodynamic from solid, Exp.LogS, PROTAC pairs and building blocks; pH 7, 25 °C
Returns satisfied if the recorded solubility at 1 h is greater than or equal to 60 µM, and not satisfied otherwise.

These solved cases illustrate the format of a correct answer.
Cc1ncsc1-c1ccc(CNC(=O)[C@@H]2C[C@H](O)CN2C(=O)[C@@H](N)C(C)(C)C)cc1.Cl.Cl [S,S,S-AHPC 2HCl] | satisfied
Cc1sc2c(c1C)C(c1ccc(Cl)cc1)=N[C@@H](CC(=O)O)c1nnc(C)n1-2 | satisfied
Nc1cccc2c1C(=O)N(C1CCC(=O)NC1=O)C2=O (stereo not drawn) [Pomalidomide] | not satisfied

Hi, just wondering whether COc1cc(C(=O)NCCOCCOCCOCCC(=O)Nc2cccc3c2C(=O)N(C2CCC(=O)NC2=O)C3=O)ccc1Nc1ncc(C(F)(F)F)c(Oc2cccc3c2C(=O)CC3)n1 (stereo not drawn) shows solubility at 1 h of 60 µM or higher.
not satisfied

State whether the measured solubility at 1 h reaches 60 µM, counting equality as reaching it, for COc1cc(C(=O)NC2CCN(C)CC2)ccc1Nc1ncc(C(F)(F)F)c(Oc2cccc3c2C(=O)CC3)n1
satisfied

Hello, the source for this data is paper PMC9574862, in case you need it.
